tested on: TNF; test: In vitro chemical screen (Spectrum collection): TNF secretion by E. coli challenged THP-1 cells, DAS-ELISA; format: cell-based, human; conditions: THP-1 cells, 10µM compound for 1 hour, then PFA-fixed E. coli (MOI 20) for 24 hours
Reported endpoint: Z score TNFa

Molecule | Subject of test | Z score TNFa
CCC(=O)OCC(=O)[C@@]1(OC(=O)CC)[C@H](C)C[C@H]2[C@H]3[C@H]([C@@H](O)C[C@@]21C)[C@@]1(C)C=CC(=O)C=C1C[C@H]3Cl [Alclometazone dipropionate] | TNF | -1,999200408
CC1(C)C(=O)C=C[C@@]2(C)C1=C(O)C(=O)[C@]1(C)[C@@H]2CC[C@@]2(C)[C@H](c3ccoc3)C[C@H]3O[C@]321 [Cedrelone] | TNF | -2,817231786
CC1(C)O[C@@H]2C[C@H]3[C@@H]4CCC5=CC(=O)C=C[C@]5(C)[C@H]4[C@@H](O)C[C@]3(C)[C@]2(C(=O)CO)O1 [Desonide] | TNF | -2,297715909

The record that follows has no Z score TNFa shown yet.
Identify Z score TNFa associated with the molecule CN(C)c1ccc(C(=C2C=CC(=[N+](C)C)C=C2)c2ccc(N(C)C)cc2)cc1 [Gentian violet] -2,696385799
